Target: T1, HLA-A2/E6 (29-38) tetramer (human; HPV 16)
T1 construct: also called E6(29-38) peptide-MHC tetramer; E6(29-38)-loaded tetramer
Assay: tetramer flow cytometry; transfected Jurkat-derived cells, CD8+ population

{"columns": ["Binder", "% cells in E6 tet-/CD8- quadrant, %"],
 "data": [
  ["modified version of TCR 13 (codon optimized, cysteine modified) (TCR, V domains shown) V domain 1: AQSVTQLDSHVSVSEGTPVLLRCNYSSSYSPSLFWYVQHPNKGLQLLLKYTSAATLVKGINGFEAEFKKSETSFHLTKPSAHMSDAAEYFCVVRGGKLIFGQGTELSVKP V domain 2: GAGVSQSPRYKVAKRGQDVALRCDPISGHVSLFWYQQALGQGPEFLTYFQNEAQLDKSGLPSDRFFAERPEGSVSTLKIQRTQQEDSAVYLCASSPTGTERELFFGEGSRLTVLE", 1.82],
  ["TCR 23 (codon optimized, cysteine modified version) (TCR, V domains shown) V domain 1: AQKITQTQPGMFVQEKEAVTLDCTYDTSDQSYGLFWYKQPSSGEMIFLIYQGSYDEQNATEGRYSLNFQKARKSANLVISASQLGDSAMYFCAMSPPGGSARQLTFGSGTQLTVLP V domain 2: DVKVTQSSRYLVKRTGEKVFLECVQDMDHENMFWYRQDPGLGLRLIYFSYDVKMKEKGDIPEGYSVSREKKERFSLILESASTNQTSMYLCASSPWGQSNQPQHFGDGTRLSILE", 2.14],
  ["TCR 18 (codon optimized, cysteine modified version) (TCR, V domains shown) V domain 1: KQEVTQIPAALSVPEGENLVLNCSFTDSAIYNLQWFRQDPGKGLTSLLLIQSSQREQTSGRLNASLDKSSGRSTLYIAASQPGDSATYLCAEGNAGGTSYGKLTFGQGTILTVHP V domain 2: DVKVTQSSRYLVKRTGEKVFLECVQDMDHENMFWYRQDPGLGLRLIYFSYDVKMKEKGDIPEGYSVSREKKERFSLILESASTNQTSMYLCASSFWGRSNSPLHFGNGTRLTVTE", 1.86]
]}
